// reported EC50 per item
Target: T1, Cynomolgus monkey CLDN18 (cynomolgus monkey)
T1 construct: On transfected HEK293-6E cells; also called Cyno CLDN18; cynomologus monkey CLDN18.2 ortholog
T1 chain: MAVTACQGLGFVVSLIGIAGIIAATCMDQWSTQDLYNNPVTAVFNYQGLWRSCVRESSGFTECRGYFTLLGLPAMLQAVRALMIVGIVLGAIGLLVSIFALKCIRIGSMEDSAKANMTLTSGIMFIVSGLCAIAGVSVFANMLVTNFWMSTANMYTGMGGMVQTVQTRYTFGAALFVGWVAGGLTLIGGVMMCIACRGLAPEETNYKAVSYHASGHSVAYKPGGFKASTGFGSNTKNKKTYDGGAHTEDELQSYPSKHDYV
Assay: FACS on transfected HEK293-6E cells, 4 parameter logistic fit
The reply should contain only the number, in nM.

Recorded results for 5 binders are shown here.
v37407 (antibody, human IgG1, V domains shown, Humanized, recombinant human IgG1-based monoclonal antibody; also called H4-L4) VH: QVQLVESGGGLVQPGGSLRLSCSVSGIDLSSNPMIWVRQAPGKGLEYIGIIDTDGSTYYADWAKGRFTISKDSTTVYLQMNSLRAEDTAVYYCARRLHGSSNGYYDDLWGQGTLVTVSS VL: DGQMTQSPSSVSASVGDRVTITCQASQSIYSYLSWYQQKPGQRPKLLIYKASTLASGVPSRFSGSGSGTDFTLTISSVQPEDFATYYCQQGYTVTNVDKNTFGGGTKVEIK | 0.24
v37408 (antibody, human IgG1, V domains shown, Humanized, recombinant human IgG1-based monoclonal antibody; also called H4-L2) VH: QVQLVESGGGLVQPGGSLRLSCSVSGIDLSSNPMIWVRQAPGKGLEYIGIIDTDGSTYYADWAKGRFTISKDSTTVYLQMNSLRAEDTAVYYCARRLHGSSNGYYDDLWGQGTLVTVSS VL: DGQMTQSPSSVSASVGDRVTITCQASQSIYSYLSWYQQKPGQRPKLLIYKASTLASGVPSRFSGSGSGTDFTLTISSVQPEDAATYYCQQGYTVTNVDKNTFGGGTKVEVK | 0.36
v35777 (antibody, human IgG1, V domains shown, Rabbit variable regions on human IgG1 (constant region starts at alanine Kabat-114) and human C kappa (starts at arginine Kabat-108); also called parental rabbit chimeric; rabbit-human chimeric IgG1/kappa antibody construct) VH: QSLEESGGRLVTPGTPLTLTCTVSGIDLSSNPMIWVRQAPGKGLQYIGIIDTDGSTYYASWAKGRFTGSKTSTTVDLKITSPTTEDTATYFCARRLHGSSNGYYDDLWGQGTLVTISS VL: DGVMTQTPSSVSAAVGGTVTIKCQASQSIYSYLSWYQQKPGQRPKLLIYKASTLASGVPSRFKGSGSGTEFTLTISGVQCDDAATYYCQQGYTVTNVDKNTFGGGTEVVVK | 0.48
v37411 (antibody, human IgG1, V domains shown, Humanized, recombinant human IgG1-based monoclonal antibody; also called H5-L4) VH: QVQLVESGGGLVQPGGSLRLSCSVSGIDLSSNPMIWVRQAPGKGLQYIGIIDTDGSTYYADWAKGRFTISKDSTTVYLQINSPRAEDTAVYYCARRLHGSSNGYYDDLWGQGTLVTVSS VL: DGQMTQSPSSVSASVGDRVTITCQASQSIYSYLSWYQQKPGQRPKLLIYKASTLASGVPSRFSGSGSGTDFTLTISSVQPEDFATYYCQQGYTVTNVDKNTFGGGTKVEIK | 0.37
v37410 (antibody, human IgG1, V domains shown, Humanized, recombinant human IgG1-based monoclonal antibody; also called H3-L4) VH: QVQLVESGGGLVQPGGSLRLSCSVSGIDLSSNPMIWVRQAPGKGLQYIGIIDTDGSTYYADWAKGRFTISKDSSKNTVYLQMNSLRAEDTAVYYCARRLHGSSNGYYDDLWGQGTLVTVSS VL: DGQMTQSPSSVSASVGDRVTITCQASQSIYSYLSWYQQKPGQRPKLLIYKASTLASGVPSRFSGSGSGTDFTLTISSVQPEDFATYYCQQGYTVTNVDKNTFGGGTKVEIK | 0.31

Now, please, on to the next binder.
Exam item: // query EC50 value for entry v37409 (antibody, human IgG1, V domains shown, Humanized, recombinant human IgG1-based monoclonal antibody; also called H2-L4) VH: QVQLVESGGGLVQPGGSLRLSCSVSGIDLSSNPMIWVRQAPGKGLEYIGIIDTDGSTYYADWAKGRFTISKDSSKNTVYLQMNSLRAEDTAVYYCARRLHGSSNGYYDDLWGQGTLVTVSS VL: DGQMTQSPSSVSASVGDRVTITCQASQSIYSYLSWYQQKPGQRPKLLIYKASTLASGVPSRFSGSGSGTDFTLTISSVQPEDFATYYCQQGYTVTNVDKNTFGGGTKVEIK
Marked response: 0.35
